Data provenance is patent US11739098B2.

# pIC50 listing for each entry below
- Tgt: human TLR8 (Homo sapiens, UniProt Q9NR97)
- Sequence (Q9NR97 27-1041): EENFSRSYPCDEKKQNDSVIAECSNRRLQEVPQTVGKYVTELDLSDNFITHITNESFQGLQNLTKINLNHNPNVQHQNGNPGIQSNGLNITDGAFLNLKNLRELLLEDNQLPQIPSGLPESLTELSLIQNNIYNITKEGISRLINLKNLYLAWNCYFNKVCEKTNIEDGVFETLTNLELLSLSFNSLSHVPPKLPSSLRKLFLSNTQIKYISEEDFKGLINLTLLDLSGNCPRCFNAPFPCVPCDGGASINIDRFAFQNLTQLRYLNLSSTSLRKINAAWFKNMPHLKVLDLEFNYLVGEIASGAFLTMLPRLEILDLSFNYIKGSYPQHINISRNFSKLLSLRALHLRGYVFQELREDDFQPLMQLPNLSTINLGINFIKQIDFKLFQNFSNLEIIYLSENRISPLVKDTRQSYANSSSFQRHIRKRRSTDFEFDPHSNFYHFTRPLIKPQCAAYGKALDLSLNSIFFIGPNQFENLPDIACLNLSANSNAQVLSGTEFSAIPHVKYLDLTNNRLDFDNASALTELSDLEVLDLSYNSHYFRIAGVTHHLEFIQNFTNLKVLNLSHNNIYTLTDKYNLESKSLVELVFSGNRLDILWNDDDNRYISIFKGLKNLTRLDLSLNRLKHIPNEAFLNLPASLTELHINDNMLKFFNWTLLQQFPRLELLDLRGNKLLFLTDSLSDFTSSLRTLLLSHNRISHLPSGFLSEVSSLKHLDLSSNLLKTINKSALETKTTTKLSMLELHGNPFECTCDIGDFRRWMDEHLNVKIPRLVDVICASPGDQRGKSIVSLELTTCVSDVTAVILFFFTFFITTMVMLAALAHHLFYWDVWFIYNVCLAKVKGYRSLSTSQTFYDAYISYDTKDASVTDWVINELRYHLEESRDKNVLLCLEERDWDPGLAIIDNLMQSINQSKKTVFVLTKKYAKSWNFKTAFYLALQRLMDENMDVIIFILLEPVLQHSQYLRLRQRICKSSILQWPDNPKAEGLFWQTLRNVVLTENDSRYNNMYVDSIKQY
- Protocol Summary: TLR8 inhibition reporter assay (HEK-Blue cells, SEAP reporter, R848 stimulation)
- Protocol Conditions: HEK-Blue cells overexpressing human TLR8, SEAP reporter, R848 15.9 μM
pIC50: −log10 of the molar value.

| Structure Smiles String | pIC50 |
| --- | --- |
| CC(C)c1c(-c2ccc3nccn3c2)[nH]c2ccc(C3CCNCC3)cc12 | 6.00 to 7.00 |
| CNC(=O)CN1CCC(c2ccc3[nH]c(-c4cc(C)c5ncccc5c4)c(C(C)C)c3c2)CC1 | > 7.00 |
| COc1cc(-c2[nH]c3ccc(C4CCN(CC(=O)N(C)C)CC4)cc3c2C(C)C)cn2cc(C(=O)N(C)C)nc12 | > 7.00 |
| Cc1cc(-c2[nH]c3ccc(C4CCN(C(=O)CN(C)C)CC4)cc3c2C(C)C)nn2ncnc12 | > 7.00 |
| Cc1nnn2ccc(-c3[nH]c4ccc(C5CCN(C(=O)CN(C)C)CC5)cc4c3C(C)C)cc12 | > 7.00 |
| CC(C)c1c(-c2ccc(Cl)c3[nH]ncc23)[nH]c2ccc(C3CCN(C(=O)CN(C)C)CC3)cc12 | 6.00 to 7.00 |
| CC(C)c1c(-c2ccc3[nH]ccc3c2)[nH]c2ccc(C3CCNCC3)cc12 | 4.30 to 6.00 |
| Cc1c(-c2ncnc3c2cnn3C)[nH]c2ccc(C3CCN(C4CCN(C(C)C)CC4)CC3)cc12 | < 5.51 |
| Cc1cc(-c2[nH]c3ccc(C4CCNCC4)cc3c2C(C)C)cc2cncn12 | > 7.00 |
| Cc1nc2c(-c3[nH]c4ccc(C5CCN(C(=O)CN(C)C)CC5)cc4c3C(C)C)ccc(C)n2n1 | 6.00 to 7.00 |
| Cc1cc2[nH]c(-c3ccnc4[nH]ncc34)c(C(C)C)c2cc1C1CCNCC1 | > 7.00 |
| Cc1nc2cc(-c3[nH]c4ccc(C5CCN(CC(=O)N(C)C)CC5)cc4c3C(C)C)cc(C)c2o1 | 6.00 to 7.00 |
| CC(C)c1c(-c2coc3cccnc23)[nH]c2ccc(C3CCNCC3)cc12 | < 5.51 |
| COc1cc(-c2[nH]c3ccc(C4CCNCC4)cc3c2C(C)C)cc2nc(C)nn12 | > 7.00 |
| Cc1cc(-c2[nH]c3ccc(C4CCN(CC(=O)N(C)C)CC4)cc3c2C(C)C)c(C)n2nnnc12 | > 7.00 |
| CC(C)c1c(-c2ccn3nccc3c2)[nH]c2ccc(C3CCN(CC(=O)N(C)C)CC3)cc12 | > 7.00 |
